Below, each entry is listed with its recorded inhibition at 11.1 µM.
- Tested On: hERG (Kv11.1, KCNH2) (Homo sapiens)
- Sequence (Q12809 whole entry): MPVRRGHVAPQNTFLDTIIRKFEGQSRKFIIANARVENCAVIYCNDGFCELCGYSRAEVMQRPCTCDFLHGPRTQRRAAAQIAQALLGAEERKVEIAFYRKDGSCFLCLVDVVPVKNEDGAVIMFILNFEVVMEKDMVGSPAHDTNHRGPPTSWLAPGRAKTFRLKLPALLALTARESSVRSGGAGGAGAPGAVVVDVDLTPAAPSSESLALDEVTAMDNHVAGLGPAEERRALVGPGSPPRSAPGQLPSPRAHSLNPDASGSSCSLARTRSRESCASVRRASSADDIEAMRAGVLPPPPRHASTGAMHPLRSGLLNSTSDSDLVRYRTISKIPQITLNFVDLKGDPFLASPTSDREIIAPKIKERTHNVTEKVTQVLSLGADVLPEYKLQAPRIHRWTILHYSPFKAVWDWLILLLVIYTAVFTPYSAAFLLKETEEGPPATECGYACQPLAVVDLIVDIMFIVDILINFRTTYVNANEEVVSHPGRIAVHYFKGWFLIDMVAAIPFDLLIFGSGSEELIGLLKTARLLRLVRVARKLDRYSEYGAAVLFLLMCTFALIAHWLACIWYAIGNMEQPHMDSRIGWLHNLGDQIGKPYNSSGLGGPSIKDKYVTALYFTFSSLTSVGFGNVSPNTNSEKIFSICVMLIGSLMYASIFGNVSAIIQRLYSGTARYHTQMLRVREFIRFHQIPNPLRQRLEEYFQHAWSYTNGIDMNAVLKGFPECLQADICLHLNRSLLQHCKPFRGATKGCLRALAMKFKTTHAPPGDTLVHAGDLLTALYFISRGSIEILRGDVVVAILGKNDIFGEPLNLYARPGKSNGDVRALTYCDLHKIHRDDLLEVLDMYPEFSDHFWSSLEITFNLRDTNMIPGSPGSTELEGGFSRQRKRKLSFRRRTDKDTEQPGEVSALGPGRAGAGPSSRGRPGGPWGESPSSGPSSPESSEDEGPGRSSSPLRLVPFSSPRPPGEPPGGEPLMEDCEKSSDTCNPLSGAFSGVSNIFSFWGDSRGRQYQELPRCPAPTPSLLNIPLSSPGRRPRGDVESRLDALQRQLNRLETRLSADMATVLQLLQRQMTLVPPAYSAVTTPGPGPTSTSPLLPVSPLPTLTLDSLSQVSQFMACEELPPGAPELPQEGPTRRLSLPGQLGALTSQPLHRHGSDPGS
- Measurement Notes: in vitro
- Description: MMV: Malaria Box compounds were tested for inhibition of the human ether a go-go related gene (hERG), Kv11.1 channel, using IonWorks 384-well patch clamp electrophysiology at 11.1uM (3 independent assay plates up to 12 cells per concentration).
Activity calls are given as the source filed them. No rule for the calls is given here.

>>> reading("CN1CCN(c2ncnc3c2[nH]c2ccc(Cl)cc23)CC1")
"92% (active)"

Q: Using the record for COc1ccc2sc(N(Cc3cccnc3)C(=O)c3ccc(C#N)cc3)nc2c1 , report its inhibition at 11.1 µM.
Result: 82% (active)

Q: What does the data say about its inhibition at 11.1 µM? Entry: CCCCCCC(O)(c1ccc(F)cc1)C(CN1CCOCC1)c1ccccc1 (stereo not drawn)
Result: 71% (active)

Q: What does the record list as inhibition at 11.1 µM for CC(NCc1ccccc1)c1cc(Cl)ccc1O (stereo not drawn) ?
Result: 35%

Q: Requested read-out: inhibition at 11.1 µM. Entry: OC1CCCCC1C1(NC(=S)Nc2ccccc2)CCCCC1 (stereo not drawn)
Result: 51% (active)

Q: Reported inhibition at 11.1 µM, compound Nc1ccn([C@@H]2O[C@H](CO)[C@@H](O)[C@H]2O)c(=O)n1 [CYTIDINE] : ____
Result: 8% (inactive)

Q: What value of inhibition at 11.1 µM has been reported for the following compound? COc1cccc(C(=O)NC(c2ccc(C)cc2)c2cc(Cl)c3cccnc3c2O)c1 (stereo not drawn)
Result: -6% (inactive)

Q: Quick check: inhibition at 11.1 µM of COc1cccc(Nc2nc(N)c3ccccc3n2)c1 ?
Result: 9% (inactive)

Q: Which measured inhibition at 11.1 µM value corresponds to O=C(NC1CCCCC1)C(c1cccs1)N(CCc1ccccc1)C(=O)c1ccco1 (stereo not drawn) ?
Result: 53% (active)
